The measured values listed here are drawn from ChEMBL document CHEMBL5154637.

# test_summary: Cytotoxicity against human Huh-7 cells assessed as reduction in cell viability incubated for 24 hrs by Celltiter-glo luminescent cell viability assay
# Type: toxicity, cell-based
So I've got a bunch of compounds here, and I need their CC50 at 24 h values.

Which CC50 at 24 h is listed for COc1cccc2[nH]c(C(=O)N[C@@H](CC(C)C)C(=O)N[C@@H](C[C@@H]3CCCNC3=O)C(=O)COC(=O)C3(C(F)(F)F)CCCCC3)cc12 ?
> 100 µM

Which CC50 at 24 h is listed for COc1cccc2[nH]c(C(=O)N[C@@H](CC(C)C)C(=O)N[C@@H](C[C@@H]3CCCNC3=O)C(=O)COC(=O)c3c(Cl)cccc3Cl)cc12 ?
> 100 µM

Which CC50 at 24 h is listed for COc1cccc2[nH]c(C(=O)N[C@@H](CC(C)C)C(=O)N[C@@H](C[C@@H]3CCCNC3=O)C(=O)COC(=O)c3c(C)cc(C)nc3C)cc12 ?
> 100 µM
